Exercise: state measured growth inhibition for each of the compounds provided.
runDescription: NCI Yeast Anticancer Drug Screen. Data for the CLN2oe strain (AID 163);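 also: 0% = growth of vehicle-only control cultures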
setupConditions: S. cerevisiae CLN2oe strain, at 33.0 µM, hits give high values
The panel holds about 79,000 compounds, 15% with a hit somewhere; the sample as a whole holds those more often.
Use % as the unit, but write only the number.

Requested field: growth inhibition. Item: CCCCCCCCCCCCCCCCCCNC(=S)/N=C/c1c(O)c2ccccc2[nH]c1=O
-7

Requested field: growth inhibition. Item: NC(=S)N/N=C1\c2ccccc2CCC1CCC1(O)CCc2ccccc2C1=O (stereo unspecified)
64

Requested field: growth inhibition. Item: OC1(C#CI)CCCCC1
99

Requested field: growth inhibition. Item: O=C(Cc1ccccc1)NN1C(=O)C(Cl)C1c1cc(Br)cc(Br)c1O (stereo unspecified)
94

Requested field: growth inhibition. Item: COc1cc(C2C3=C(COC3=O)Oc3cc4c(cc32)OCO4)cc(OC)c1O (stereo unspecified)
17

Requested field: growth inhibition. Item: CN(CCOc1ccc(Cl)cc1)CCOc1ccc(Cl)cc1
90

Requested field: growth inhibition. Item: Clc1nc(Cl)nc(Nc2cccc3ccccc23)n1
94

Requested field: growth inhibition. Item: C=C(C(=O)OC)N1C(=O)CC(C)C1=O (stereo unspecified)
14

Requested field: growth inhibition. Item: C=COC(=O)N[C@H]1CCc2cc(OC)c(OC)c(OC)c2-c2ccc(SC)c(=O)cc21
-10

Requested field: growth inhibition. Item: O=NC1c2cccc3cccc(c23)C1N=O (stereo unspecified)
43

Requested field: growth inhibition. Item: COC(=O)C1=C(C(=O)OC)CC(n2nnc(C(=O)OC)c2C(=O)OC)=CC1
-1

Requested field: growth inhibition. Item: Cc1ccccc1NC(=O)c1c(C)oc2c1C(=O)c1ccccc1C2=O
39

Requested field: growth inhibition. Item: CCCC/C=C1\CCC(CN2CCCC2)C1=O (stereo unspecified)
70

Requested field: growth inhibition. Item: O=[N+]([O-])c1cccc2nc3ccccc3c(NCCCN3CCCCC3)c12
95

Requested field: growth inhibition. Item: CC(C)OC(=O)NNc1cc(Cl)ccc1Cl
50

Requested field: growth inhibition. Item: CCCCS/C(=C(/C#N)C(N)=O)c1cc2c([nH]1)CCCC2
-32

Requested field: growth inhibition. Item: Cc1cc2nc3ccccc3n2c2ccccc12
-7

Requested field: growth inhibition. Item: O=C1Nc2ccc(Br)cc2C1=Nc1cccnc1
-8

Requested field: growth inhibition. Item: CCCCCCNCCCNc1c2cc(OC)ccc2nc2cccc([N+](=O)[O-])c12
53

Requested field: growth inhibition. Item: O=C1C[C@H]2[C@H](c3ccc(Br)cc3)[C@H]3C(=O)c4ccccc4NC(=O)[C@@H]3[C@@]2(O)c2ccccc2N1
38

Requested field: growth inhibition. Item: Fc1cc(F)c(F)c(S)c1F
69

Requested field: growth inhibition. Item: Nc1ccc(/C=C/c2ccc3cccnc3c2)cc1
-4

Requested field: growth inhibition. Item: O=C(O)c1ccccc1C(=O)OC1CCc2ccccc2C1 (stereo unspecified)
39

Requested field: growth inhibition. Item: NCCOc1ccc(/C(=C(/Cl)c2ccccc2)c2ccccc2)cc1
98

Requested field: growth inhibition. Item: CCN(CC)C(=S)N/N=C(\C)c1ccccc1O
96

Requested field: growth inhibition. Item: BrC1C2CCC3OC3C12 (stereo unspecified)
99

Requested field: growth inhibition. Item: Cc1ccnc2c(O)cccc12
100

Requested field: growth inhibition. Item: CC(C)CCC[C@@H](C)[C@H]1CC[C@H]2[C@@H]3CC[C@H]4C[C@H](N)CC[C@]4(C)[C@H]3CC[C@]12C
-16

Requested field: growth inhibition. Item: C[n+]1c(/C=C/c2ccc(/C=N/NC(=O)c3ccc(C(=O)N/N=C/c4ccc(/C=C/c5cn6ccccc6[n+]5C)cc4)cc3)cc2)cn2ccccc21
95

Requested field: growth inhibition. Item: CC(=O)N1C=Cc2c(c(C)c3c([nH]c4ccccc43)c2C)C1
95

Requested field: growth inhibition. Item: OC(CC(O)(C(F)(F)F)C(F)(F)F)c1ccc(C(O)CC(O)(C(F)(F)F)C(F)(F)F)cc1 (stereo unspecified)
99

Requested field: growth inhibition. Item: CCN1CCC(O)(c2ccc(Oc3ccc(C)cc3)cc2)C(C(=O)c2ccc(Oc3ccc(C)cc3)cc2)C1 (stereo unspecified)
96

Requested field: growth inhibition. Item: CCC(=O)C1=C(O)c2cc(OC)ccc2CC1C(=O)OC (stereo unspecified)
10

Requested field: growth inhibition. Item: O=C(NO)c1coc2ccccc2c1=O
8

Requested field: growth inhibition. Item: CCC(=O)Nc1ccc(N=NN(C)C)cc1
21

Requested field: growth inhibition. Item: CC(C)N(CCCNc1c2ccccc2nc2cccc([N+](=O)[O-])c12)C(C)C
91

Requested field: growth inhibition. Item: Cc1ccc(NC(Nc2ccc(C)cc2C)=C(C(Cl)=C(Cl)Cl)[N+](=O)[O-])c(C)c1
99

Requested field: growth inhibition. Item: O=C1C(=O)c2cccc([N+](=O)[O-])c2-c2ccccc21
99

Requested field: growth inhibition. Item: CC(=O)/C(=C\c1ccc(Cl)c(Cl)c1)C(=O)C(C)CN(C)C (stereo unspecified)
44

Requested field: growth inhibition. Item: OC(Cc1cccc2ccccc12)CN1CCC(c2ccccc2)CC1 (stereo unspecified)
94

Requested field: growth inhibition. Item: Oc1ccc(N=Nc2ccc(Cl)cc2)cc1
99

Requested field: growth inhibition. Item: COc1cc2oc3ccccc3c(=O)c2cc1CSc1ccccc1N
2

Requested field: growth inhibition. Item: CC12CCC(CC(=O)/C1=C(/Br)I)C2(C)C (stereo unspecified)
0

Requested field: growth inhibition. Item: COc1ccc(C(C)c2cc3c(cc2OC(C)O)OCO3)cc1 (stereo unspecified)
1

Requested field: growth inhibition. Item: COc1cc([N+](=O)[O-])c2ncccc2c1Br
-11

Requested field: growth inhibition. Item: CCN(CC)CCNc1ccc2ncn3c4ccc(O)cc4c(=O)c1c23
2

These measurements were taken from PubChem BioAssay (NCI).
